- Test system: Saccharomyces cerevisiae
- Protocol text: protein stability index of tFT-peptide fusion (C-terminal peptide) (PSI (0-1 scale)); higher = more stable (slower turnover);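 note: PSI is a weighted mean of sequencing reads over stability bins, variants kept only with over 10 reads, mCherry proximal and sfGFP distal, peptide attached via GGGS linker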
- Assay context: genetic background: cdc34-1; temperature: 37 C
# protein stability index >= 0.4 gives Y, anything below gives N

Below, 4 sequences whose answers are already recorded.
Chain sequence	Assigned label
CCFVGLRYVLWV	Y
SCLFMLFPLVSV	Y
WAIMGLIIFCLF	N
CGPLLVTLVLSM	Y

Query :: Could you verify whether the entry YLDRFIFIYNIF shows protein stability index of no less than 0.4?
Result :: Y

---

- Test system: Saccharomyces cerevisiae
- Protocol text: protein stability index of tFT-peptide fusion (C-terminal peptide) (PSI (0-1 scale)); higher = more stable (slower turnover)
- Assay context: genetic background: wild type; temperature: 30 C
Reported values of protein stability index for individual entries

// below: answered sequences
Chain sequence	Result
SLWWRWQATIRR	0.714
AGRFSPLPPHFI	0.707
INRDKLNRRKKL	0.687
TSPSPLPPLFFT	0.706
TGLMAPEGGGQA	0.719
AVCWGGSVGGVG	0.699
PPPAPSPLPLFP	0.7
PPPPPHVHPPSP	0.689
ALGRRGPEDWSG	0.707

Query :: Could you tell me which protein stability index is on file for YLLPSTPPPRIP ?
Result :: 0.691

The reported measurements were obtained from the supplement of paper PMC10724198.
